Collected IC50 values appear next to each entry.
SYSTEM UNDER TEST: EML4-ALK-BaF3 (Homo sapiens, UniProt Q9UM73)
Construct: expressed in transfected cells; host or cells: Ba/F3 cells; the other entry of the earlier key: EML4 (Q9HC35, Echinoderm microtubule-associated protein-like 4)
Sequence (Q9UM73 1058-1620 limits assumed): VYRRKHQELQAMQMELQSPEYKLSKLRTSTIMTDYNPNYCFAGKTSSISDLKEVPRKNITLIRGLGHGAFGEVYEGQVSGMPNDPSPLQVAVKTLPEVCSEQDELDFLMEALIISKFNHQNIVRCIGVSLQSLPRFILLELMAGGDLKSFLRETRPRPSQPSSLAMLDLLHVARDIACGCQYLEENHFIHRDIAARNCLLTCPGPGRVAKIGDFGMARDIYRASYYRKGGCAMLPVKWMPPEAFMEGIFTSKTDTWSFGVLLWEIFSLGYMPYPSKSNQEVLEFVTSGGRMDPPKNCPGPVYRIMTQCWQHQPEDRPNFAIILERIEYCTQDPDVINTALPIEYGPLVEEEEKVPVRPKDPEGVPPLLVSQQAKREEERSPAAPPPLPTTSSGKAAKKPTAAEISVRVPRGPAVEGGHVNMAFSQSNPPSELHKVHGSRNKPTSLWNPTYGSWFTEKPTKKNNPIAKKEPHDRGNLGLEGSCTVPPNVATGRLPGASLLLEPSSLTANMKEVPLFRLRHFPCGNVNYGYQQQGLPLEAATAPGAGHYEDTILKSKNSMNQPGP
EXPERIMENTAL PROTOCOL: Growth inhibition of EML4-ALK transformed BaF3 cells (MTS)
Assay type: cell-based
CONDITIONS USED: EML4-ALK-BaF3 cells, 48 hours, MTS; Table 12

Sample answers from the record:
>>> assay_value("COc1cc(N2CCN(C)CC2)ccc1Nc1nc(Nc2ccccc2S(=O)(=O)C(C)C)c2c(ccn2C)n1")
"546 nM"
>>> assay_value("CC(C)Sc1ccccc1Nc1nc(Nc2ccc(S(N)(=O)=O)cc2)nc2ccn(C)c12")
"3020 nM"
>>> assay_value("CSc1ccccc1CNc1nc(Nc2ccc(N3CCC(O)CC3)cc2)nc2ccn(C)c12")
"> 10000 nM"
>>> assay_value("CC(C)Sc1ccccc1Nc1nc(Nc2ccc(N3CCC(O)CC3)cc2)nc2ccn(C)c12")
"489 nM"
>>> assay_value("COC(=O)c1ccccc1Oc1nc(Nc2ccc(S(N)(=O)=O)cc2)nc2ccn(C)c12")
"> 10000 nM"

Query: Provide measured IC50 value, entry: `COC(=O)c1cccc(Nc2nc(Nc3ccc(N4CCC(O)CC4)cc3)nc3ccn(C)c23)c1`
Response: 1970 nM

Query: Provide measured IC50 value, entry: `COc1cc(N2CCN(C)CC2)ccc1Nc1nc(NCc2ccccc2SC)c2c(ccn2C)n1`
Response: ~1360 nM

Query: Provide measured IC50 value, entry: `CCOc1cc(C(=O)N2CCC(N3CCN(C)CC3)CC2)ccc1Nc1nc(Nc2ccccc2SC(C)C)c2c(ccn2C)n1`
Response: ~2720 nM

meta.source: patent US10508118B2
